Recorded DC50 values for a group of compounds are listed next.
target: SMARCA4 (Homo sapiens, UniProt P51532); assay: HiBiT assay for protein degradation, Hela SMARCA4-HiBiT cells (A series); type: cell-based; parameters: fuse HiBiT to the carboxy terminus of SMARCA2 (Promega CS302365) or SMARCA4 (Promega CS3023225); host or cells: HeLa (CRISPR/Cas9 HiBiT knock-in); settings: Hela SMARCA4-HiBiT cells, 24 hours treatment; read-out: SMARC A4 Hela HiBit DC50
Sequence (P51532 whole entry): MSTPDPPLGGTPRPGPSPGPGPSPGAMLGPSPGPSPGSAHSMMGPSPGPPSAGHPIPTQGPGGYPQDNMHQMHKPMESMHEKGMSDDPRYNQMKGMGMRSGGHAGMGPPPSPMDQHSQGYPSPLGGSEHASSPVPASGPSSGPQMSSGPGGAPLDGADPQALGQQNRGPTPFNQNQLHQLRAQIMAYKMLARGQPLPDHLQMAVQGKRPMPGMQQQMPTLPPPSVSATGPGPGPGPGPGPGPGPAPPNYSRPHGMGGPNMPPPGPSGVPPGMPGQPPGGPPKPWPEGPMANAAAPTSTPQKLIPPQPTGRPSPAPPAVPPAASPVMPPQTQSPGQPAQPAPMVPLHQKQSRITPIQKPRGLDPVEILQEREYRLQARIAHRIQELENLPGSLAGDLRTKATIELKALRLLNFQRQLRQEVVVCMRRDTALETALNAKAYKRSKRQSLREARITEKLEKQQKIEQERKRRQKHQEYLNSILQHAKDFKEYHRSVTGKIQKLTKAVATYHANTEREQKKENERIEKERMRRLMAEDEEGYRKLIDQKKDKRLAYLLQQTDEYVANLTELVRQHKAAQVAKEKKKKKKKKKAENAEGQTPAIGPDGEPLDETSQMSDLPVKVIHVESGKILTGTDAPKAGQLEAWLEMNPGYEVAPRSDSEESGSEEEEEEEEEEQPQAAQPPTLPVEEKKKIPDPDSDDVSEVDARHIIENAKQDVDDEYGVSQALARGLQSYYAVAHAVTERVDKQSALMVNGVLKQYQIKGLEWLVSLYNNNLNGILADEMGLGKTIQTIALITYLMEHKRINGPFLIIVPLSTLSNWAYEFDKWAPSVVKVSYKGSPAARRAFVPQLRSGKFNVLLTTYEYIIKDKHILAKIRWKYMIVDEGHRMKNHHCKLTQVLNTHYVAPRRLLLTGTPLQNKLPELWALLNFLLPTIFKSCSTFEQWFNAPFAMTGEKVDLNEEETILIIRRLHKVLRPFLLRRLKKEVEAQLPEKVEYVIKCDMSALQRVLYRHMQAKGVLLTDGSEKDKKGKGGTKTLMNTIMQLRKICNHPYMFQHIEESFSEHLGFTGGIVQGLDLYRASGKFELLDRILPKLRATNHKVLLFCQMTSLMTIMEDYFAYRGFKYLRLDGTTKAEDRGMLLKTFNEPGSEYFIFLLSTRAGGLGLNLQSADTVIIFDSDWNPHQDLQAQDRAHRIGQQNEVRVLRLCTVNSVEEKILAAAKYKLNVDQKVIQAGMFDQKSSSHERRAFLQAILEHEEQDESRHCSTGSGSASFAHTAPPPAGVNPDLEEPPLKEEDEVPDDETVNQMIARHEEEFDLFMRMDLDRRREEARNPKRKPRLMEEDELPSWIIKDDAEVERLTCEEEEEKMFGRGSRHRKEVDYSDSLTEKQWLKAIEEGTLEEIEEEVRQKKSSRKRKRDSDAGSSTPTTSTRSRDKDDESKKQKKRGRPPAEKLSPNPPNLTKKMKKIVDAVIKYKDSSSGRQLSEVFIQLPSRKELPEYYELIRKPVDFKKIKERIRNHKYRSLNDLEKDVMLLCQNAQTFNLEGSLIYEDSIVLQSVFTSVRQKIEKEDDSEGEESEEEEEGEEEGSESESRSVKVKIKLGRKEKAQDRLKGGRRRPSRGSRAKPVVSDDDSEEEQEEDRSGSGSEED

Sample answers from the record:
Cc1ncccc1-c1ccc([C@H](CN2CCOCC2)NC(=O)[C@@H]2C[C@@H](O)CN2C(=O)[C@@H](n2cc([C@H]3CC[C@H](CN4CCC(c5ccc6c(c5)-n5c(nc(=O)c7c(Cl)cccc75)C65CCCCC5)CC4)CC3)nn2)C(C)(C)C)cc1: > 1000 nM
Cc1ncsc1-c1ccc([C@H](CCCCCN2CCC(c3ccc4c(n3)-n3c(nc(=O)c5c(Br)cccc53)C43CCCCC3)CC2)NC(=O)[C@H]2C[C@H](O)CN2C(=O)[C@@H](n2cc(C3CC3)nn2)C(C)(C)C)cc1: < 100 nM
Cc1ncsc1-c1ccc([C@H](C)NC(=O)[C@@H]2C[C@@H](O)CN2C(=O)[C@@H](n2cc(CN3CCC(c4ccc5c(c4)C4(CCCCC4)c4nc(=O)c6c(Br)cccc6n4-5)CC3)nn2)C(C)(C)C)cc1: < 100 nM
Cc1ncsc1-c1ccc([C@H](CN2CC(C(=O)O)C2)NC(=O)[C@@H]2C[C@@H](O)CN2C(=O)[C@@H](n2cc([C@H]3CC[C@H](CN4CCC(c5ccc6c(c5)-n5c(nc(=O)c7c(Cl)cccc75)C65CCCCC5)CC4)CC3)nn2)C(C)(C)C)cc1: > 1000 nM
Cc1ncsc1-c1ccc([C@H](Cn2cc(CN3CCC(c4ccc5c(c4)C4(CCCCC4)c4nc(=O)c6c(Br)cccc6n4-5)CC3)nn2)NC(=O)[C@@H]2C[C@@H](O)CN2C(=O)[C@@H](n2cc(C3CC3)nn2)C(C)(C)C)cc1: 10 to 100 nM
Cc1ncsc1-c1ccc([C@H](CNC(=O)[C@H]2CC[C@H](CN3CCC(c4ccc5c(c4)-n4c(nc(=O)c6c(Br)cccc64)C54CCCCC4)CC3)CC2)NC(=O)[C@@H]2C[C@@H](O)CN2C(=O)[C@@H](n2cc(C3CC3)nn2)C(C)(C)C)cc1: > 1000 nM

Request the reported DC50 associated with Cc1ncsc1-c1ccc([C@H](CC(=O)O)NC(=O)[C@@H]2C[C@@H](O)CN2C(=O)[C@@H](n2cc([C@H]3CC[C@H](CN4CCC(c5ccc6c(c5)-n5c(nc(=O)c7c(Cl)cccc75)C65CCCCC5)CC4)CC3)nn2)C(C)(C)C)cc1
> 1000 nM

The reported measurements were obtained from patent US20260092071A1.
